assayedTarget: T1, human CXCR2 (human, UniProt P25025 1-360)
T1 sequence: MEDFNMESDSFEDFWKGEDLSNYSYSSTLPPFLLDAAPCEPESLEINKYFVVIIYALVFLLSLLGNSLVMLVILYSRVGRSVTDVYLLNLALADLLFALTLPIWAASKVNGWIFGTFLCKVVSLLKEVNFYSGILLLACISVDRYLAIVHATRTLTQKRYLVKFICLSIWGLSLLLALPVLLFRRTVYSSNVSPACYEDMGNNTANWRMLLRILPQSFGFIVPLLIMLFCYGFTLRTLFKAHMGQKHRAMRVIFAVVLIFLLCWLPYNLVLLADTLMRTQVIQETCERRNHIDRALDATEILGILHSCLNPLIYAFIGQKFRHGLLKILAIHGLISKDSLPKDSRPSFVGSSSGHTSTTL
protocolText: cell-based or functional assay

[
  {
    "binder": "BKO-4A8-103c (antibody, human IgG4 S228P, lambda, V domains shown, IgG4 S228P, lambda) VH: EVQLLESGGGLVQPGGSLRLSCAASGFTFSSSTQSWVRQPPGKGLEWVSAISGSGGSTYYADSVKGRFTISRDNSKNTLYLQMNSLRAEDTAVYYCAIQMGYWGQGILVTVSS VL: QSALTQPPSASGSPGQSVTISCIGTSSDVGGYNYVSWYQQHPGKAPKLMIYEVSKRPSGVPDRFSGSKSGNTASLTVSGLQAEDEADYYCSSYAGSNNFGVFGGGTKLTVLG",
    "CXCL1 Fold Improvement over 4A8 WT (fold)": 2.55
  },
  {
    "binder": "BKO-4A8-101c (antibody, human IgG4 S228P, lambda, V domains shown) VH: EVQLLESGGGLVQPGGSLRLSCAASGFTFSSSTQSWVRQPPGKGLEWVSAISGRGRSTYYADSVKGRFTISRDNSKNTLYLQMNSLRAEDTAVYYCAIQAGYWGQGILVTVSS VL: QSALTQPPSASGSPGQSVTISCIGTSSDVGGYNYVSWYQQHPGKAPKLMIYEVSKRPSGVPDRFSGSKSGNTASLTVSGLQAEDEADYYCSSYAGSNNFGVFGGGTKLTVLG",
    "CXCL1 Fold Improvement over 4A8 WT (fold)": 1.49
  },
  {
    "binder": "BKO-4A8-104c (antibody, human IgG4 S228P, lambda, V domains shown, IgG4 S228P, lambda) VH: EVQLLESGGGLVQPGGSLRLSCAASGFTFSSSTQSWVRQPPGKGLEWVSAISGSGGSTYYADSVKGRFTISRDNSKNTLYLQMNSLRAEDTAVYYCAIQKGYWGQGILVTVSS VL: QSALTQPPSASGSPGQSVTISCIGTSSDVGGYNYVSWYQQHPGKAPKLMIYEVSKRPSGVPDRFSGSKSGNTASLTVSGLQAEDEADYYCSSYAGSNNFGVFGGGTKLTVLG",
    "CXCL1 Fold Improvement over 4A8 WT (fold)": 0.43
  },
  {
    "binder": "BKO-4A8-105c (antibody, human IgG4 S228P, lambda, V domains shown, IgG4 S228P, lambda) VH: EVQLLESGGGLVQPGGSLRLSCAASGFTFSSSTQSWVRQPPGKGLEWVSAISGSGGSTYYADSVKGRFTISRDNSKNTLYLQMNSLRAEDTAVYYCAIQAGYWGQGILVTVSS VL: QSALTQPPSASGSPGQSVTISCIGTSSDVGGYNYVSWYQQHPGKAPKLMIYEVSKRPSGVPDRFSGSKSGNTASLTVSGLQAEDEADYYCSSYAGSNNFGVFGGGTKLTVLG",
    "CXCL1 Fold Improvement over 4A8 WT (fold)": 0.24
  }
]
